METHOD NOTES: Binding affinity towards Protease using PNA assay […]
VALUE TYPE: pKi
Lab note — pKi values are minus log10 of concentrations in M.

Q: Please supply the value of reported pKi for the item CCCC(NC(=O)[C@@H]1[C@H]2CCC(F)(F)[C@H]2CN1C(=O)[C@@H](NC(=O)OC(C)C)C(C)(C)C)C(=O)C(=O)N[C@@H](C)c1ccccc1 (some centres not stated)
Result: 5.68

Q: Please supply the value of reported pKi for the item CCCC(NC(=O)[C@@H]1[C@H]2CCC(F)(F)[C@H]2CN1C(=O)[C@@H](NC(=O)OC(C)C)C(C)C)C(=O)C(=O)N[C@@H](C)c1ccccc1 (some centres not stated)
Result: 5.17

Q: Please supply the value of reported pKi for the item CCCC(NC(=O)[C@@H]1[C@H]2CCC[C@H]2CN1C(=O)[C@@H](NC(=O)OC(C)C)C(C)C)C(=O)C(=O)N[C@@H](C)c1ccccc1 (some centres not stated)
Result: 5.72

More entries:
Q: Please supply the value of reported pKi for the item CCCC(NC(=O)[C@@H]1[C@H]2CCC[C@H]2CN1C(=O)[C@@H](NC(=O)[C@H](O)C(C)C)C(C)C)C(=O)C(=O)Nc1ccccc1 (some centres not stated)
Result: 5.74

Q: Please supply the value of reported pKi for the item CCCC(NC(=O)[C@@H]1[C@H]2CCC[C@H]2CN1C(=O)[C@@H](NC(=O)OC(C)C)C(C)(C)C)C(=O)C(=O)Nc1ccccc1 (some centres not stated)
Result: 6.09

Q: Please supply the value of reported pKi for the item CCCC(NC(=O)[C@@H]1[C@H]2CCC(F)(F)[C@H]2CN1C(=O)[C@@H](NC(=O)[C@H](O)C(C)C)C(C)C)C(=O)C(=O)NC1CC1 (some centres not stated)
Result: 4.78

Q: Please supply the value of reported pKi for the item CCCC(NC(=O)[C@@H]1[C@H]2CCC[C@H]2CN1C(=O)[C@@H](NC(=O)[C@H](O)C(C)C)C(C)C)C(=O)C(=O)NC1CC1 (some centres not stated)
Result: 4.84
